# System Name: LPAR1 (Homo sapiens)
# Construct: host or cells: U2OS
# Assay Notes: LPAR1 FLIPR Assay
# Format: cell-based
# Setup Conditions: U2OS cells stably expressing LPAR1; LPA (EC80); Calcium 6 FLIPR dye
Measurement Kind: IC50 (nM)
Numbers only, in nM.

In [3]: df
Out[3]:
                                   compound  measurement_kind  value_measured
0  COc1cc(C(=O)N(CCCc2ccccc2)CCCC(C)(C)C(=O)O)cc(OC)c1C [Example 57]              IC50              35
1  COc1cc(C(=O)N(CCCCC(=O)O)CCCc2ccc(C)o2)c(F)c(OC)c1F [Example 175]              IC50              48
2  O=C(O)CCCCN(CCCc1ccccc1)C(=O)c1ccc2c(c1)OCCCO2 [Example 23]              IC50           12600

Go through the list and state IC50 for each entry.
1. CNS(=O)(=O)NC(=O)CCN(CCCc1ccccc1)C(=O)c1cc(OC)c(C)c(OC)c1 [Example 68]
2. COc1cc(C(=O)N(CCCCC(=O)O)CCCc2ccccc2)ccc1Cl [Example 17]
3. COc1cc(C(=O)N(CCCc2ccccc2)CCOCC(=O)O)cc(OC)c1C [Example 6]
4. CNS(=O)(=O)NC(=O)CCCCN(CCCc1ccccc1)C(=O)c1cc(OC)cc(OC)c1 [Example 74]
5. COc1cc(OC)cc(C(=O)N(CCCc2ccccc2)CCCC(C)C(=O)O)c1 (centres unmarked) [Example 98]
6. CNS(=O)(=O)NC(=O)CCCCN(CCCc1ccccc1)C(=O)C1(c2ccc(OC)cc2)CC1 [Example 73]

Ans:
902
3980
11
79
29
60

Go through the list and state IC50 for each entry.
1. COc1cc(C(=O)N(CCCOC(=O)NS(=O)(=O)c2ccc(F)cc2)CCCc2ccccc2)cc(OC)c1C [Example 145]
2. COc1cc(C(=O)N(CCCc2c(F)cccc2F)CCOCC(=O)O)cc(OC)c1C [Example 128]

Ans:
1: 437; 2: 23

Go through the list and state IC50 for each entry.
1. COc1ccc(C2(C(=O)N(CCCCC(=O)O)CCCc3ccccc3)CC(OC)C2)cc1 (centres unmarked) [Example 158]
2. COc1cc(C(=O)N(CCCc2ccccc2)CCOC(=O)NS(C)(=O)=O)cc(OC)c1C [Example 184]
3. COc1ccc(C2(C(=O)N(CCCCC(=O)O)CCCc3cccc(F)c3)CC2)cc1 [Example 92]
4. COc1cc(C(=O)N(CCCCC(=O)O)CCCc2cc(F)cc(F)c2)cc(OC)c1C [Example 126]

Ans:
1: 511; 2: 131; 3: 60; 4: 119

* * *

Kindly supply the reported Emax values for the records listed here.
# Test system: LPA-induced MCP-1 in NRK-49F cells
# Assay Notes: LPA-induced MCP-1 AlphaLISA assay
# Type: cell-based
# Setup Conditions: Rattus norvegicus, final LPA 10 μM, 7 hours, read-out: Maximum Inhibition
One number for each entry, in %.

Worked examples, 2 compounds total:
In [3]: df
Out[3]:
                              record_smiles  value_measured
0  COc1cc(C(=O)N(CCCc2ccccc2)CCOCC(=O)NS(C)(=O)=O)cc(OC)c1C              77
1  COc1cc(C(=O)N(CCCc2cccc(F)c2)CCOCC(=O)O)cc(OC)c1C              90

Go through the list and state Emax for each entry.
1. CCS(=O)(=O)NC(=O)CCCCN(CCCc1ccccc1)C(=O)c1cc(OC)c(C)c(OC)c1
2. COc1cc(C(=O)N(CCCCC(=O)O)CCCc2ccccc2)cc2oc(C)cc12

Ans:
1: 85; 2: 68

* * *

# System Name: LPAR1 (Homo sapiens, UniProt Q92633)
# Construct: host or cells: U2OS
# Sequence (Q92633 whole entry): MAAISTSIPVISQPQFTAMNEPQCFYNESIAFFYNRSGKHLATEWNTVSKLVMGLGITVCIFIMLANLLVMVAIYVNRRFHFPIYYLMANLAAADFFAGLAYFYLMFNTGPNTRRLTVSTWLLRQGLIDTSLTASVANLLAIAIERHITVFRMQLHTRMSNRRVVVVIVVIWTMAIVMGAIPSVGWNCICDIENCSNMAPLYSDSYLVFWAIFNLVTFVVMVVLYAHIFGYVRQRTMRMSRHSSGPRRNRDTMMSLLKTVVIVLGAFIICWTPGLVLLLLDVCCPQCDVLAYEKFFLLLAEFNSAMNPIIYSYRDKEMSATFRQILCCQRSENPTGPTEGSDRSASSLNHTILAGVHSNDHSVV
# Assay Notes: IP-One HTRF Assay
# Type: cell-based
# Setup Conditions: U2OS cells stably expressing LPAR1; LPA stimulation; IP-One Tb HTRF kit; read-out: Maximum Inhibition
Kindly supply the reported Emax values for the records listed here.
The answer consists of two parts: a number and, after it, its unit.

Worked examples, 3 compounds total:
In [3]: df
Out[3]:
                                   compound                           system_name  measurement_kind  value_measured
0  COc1cc(C(=O)N(CCCc2ccccc2)CCCC(C)(C)C(=O)O)cc(OC)c1C  LPAR1 (Homo sapiens, UniProt Q92633)              Emax             95%
1  COc1cc(C(=O)N(CCCCC(=O)O)CCCc2ccco2)cc(OC)c1C  LPAR1 (Homo sapiens, UniProt Q92633)              Emax             75%
2  COc1cc(C(=O)N(CCCc2cccc(Cl)c2)CCSCC(=O)O)cc(OC)c1C  LPAR1 (Homo sapiens, UniProt Q92633)              Emax             78%

Go through the list and state Emax for each entry.
1. COc1cc(C(=O)N(CCCc2ccccc2)CCC[C@@H](C)C(=O)O)cc(OC)c1C (single isomer, unassigned)
2. COc1cc(C(=O)N(CCCc2ccccc2)CCOCC(=O)NS(C)(=O)=O)cc(OC)c1C
3. COc1cc(C(=O)N(CCCc2ccc(C)o2)CCSCC(=O)O)cc(OC)c1C

Ans:
1: 84%; 2: 75%; 3: 80%

Go through the list and state Emax for each entry.
1. COc1cc(C(=O)N(CCCc2ccccc2)CCSCC2(C(=O)O)CC2)cc(OC)c1C
2. COc1cc(C(=O)N(CCCc2cccc(Cl)c2)CCOCC(=O)O)cc(OC)c1C
3. COc1cc(C(=O)N(CCCc2ccccc2)CCSC(C)CC(=O)O)cc(OC)c1C (stereo not drawn)
4. COc1cc(C(=O)N(CCCCC(=O)NS(C)(=O)=O)CCCc2ccccc2)cc(OC)c1C
5. CNS(=O)(=O)NC(=O)CCN(CCCc1ccccc1)C(=O)c1cc(OC)c(C)c(OC)c1
6. COc1cc(C(=O)N(CCCc2ccccc2F)CCSCC(=O)O)cc(OC)c1C

Ans:
1: 85%; 2: 85%; 3: 75%; 4: 80%; 5: 67%; 6: 81%

Go through the list and state Emax for each entry.
1. COc1cc(C(=O)N(CCCCC(=O)NS(=O)(=O)c2ccccn2)CCCc2ccccc2)cc(OC)c1C
2. COc1cc(C(=O)N(CCCc2c(F)cccc2F)CCOCC(=O)O)cc(OC)c1C
3. COc1cc(C(=O)N(CCCCC(=O)O)CCCc2ccccc2)cc(OC)c1OC

Ans:
1. 76%
2. 101%
3. 77%

* * *

# System Name: LPAR1 (Homo sapiens, UniProt Q92633)
# Construct: host or cells: U2OS
# Assay Notes: IP-One HTRF Assay
# Format: cell-based
# Setup Conditions: U2OS cells stably expressing LPAR1; LPA stimulation; IP-One Tb HTRF kit; read-out: Maximum Inhibition
Decision: Emax beneath 90% gives label 1; Emax meeting or exceeding 90% gives label 0.

                              record_smiles                           system_name  label_value
0  COc1cc(C(=O)N(CCCc2ccccc2)CCOCCC(=O)O)cc(OC)c1C  LPAR1 (Homo sapiens, UniProt Q92633)      label 0
1  COc1cc(C(=O)N(CCCCC(=O)O)CCCc2ccccc2)cc(OC)c1Br  LPAR1 (Homo sapiens, UniProt Q92633)      label 0
2  CCOP(=O)(O)CCCCN(CCCc1ccccc1)C(=O)c1cc(OC)cc(OC)c1  LPAR1 (Homo sapiens, UniProt Q92633)      label 1

As a next step, examine the compound that follows.
Q: Decide: Emax of `COc1cc(C(=O)N(CCCc2cccc(F)c2)CCOCC(=O)O)cc(OC)c1C` strictly below 90%?
Ans: label 0

* * *

# System Name: LPAR1 (Homo sapiens)
# Construct: host or cells: U2OS
# Assay Notes: LPAR1 FLIPR Assay
# Assay type: cell-based
# Setup Conditions: U2OS cells stably expressing LPAR1; LPA (EC80); Calcium 6 FLIPR dye
Kindly supply the reported IC50 values for the records listed here.
One number for each entry, in nM.

>>> print(df.to_string())
                                   compound  unit_abbrev  value_measured
0  COc1cc(OC)cc(C(=O)N(CCCc2ccccc2)CCOCC(=O)O)c1           nM             290
1  COc1cc(OC)cc(C(=O)N(CCCc2ccccc2)CCCC(C)(C)C(=O)O)c1           nM              26
2  COc1cc(C(=O)N(CCCCC(=O)O)CCCc2ccccc2)ccc1[N+](=O)[O-]           nM              54
3  COc1cc(C(=O)N(CCCCC(=O)NS(=O)(=O)C2CC2)CCCc2ccccc2)cc(OC)c1C           nM              97
4  COc1ccc(C2(C(=O)N(CCCCC(=O)O)CCCc3cccc(Cl)c3)CC2)cc1           nM              47
5  COc1cc(C(=O)N(CCCc2ccccc2)CC(=O)NCC(=O)O)cc(OC)c1C           nM             238
6  COc1cc(OC)cc(C(=O)N(CCCCC(=O)O)CCCc2ccccc2)c1           nM              32
7  COc1cc(C(=O)N(CCCCC(=O)NS(C)(=O)=O)CCCc2ccccc2)cc(OC)c1C           nM              28
8  COc1cc(C(=O)N(CCCCC(=O)O)[C@@H](C)CCc2ccccc2)cc(OC)c1C           nM             225
9  COc1cc(C(=O)N(CCCc2ccccc2F)CCOCC(=O)O)cc(OC)c1C           nM              16

Go through the list and state IC50 for each entry.
1. COc1cc(C(=O)N(CCCc2ccccc2)CCCC(C)C(=O)O)cc(OC)c1C (centres unmarked)
2. O=C(O)CCCCN(CCCc1ccccc1)C(=O)C1CC(=O)Nc2cc(F)ccc21 (centres unmarked)
3. COc1cc(OC)cc(C(=O)N(CCCCC(=O)O)CCCc2ccccc2F)c1
4. COc1ccc2c(C(=O)N(CCCCC(=O)O)CCCc3ccccc3)c[nH]c2c1

Ans:
1. 15
2. 333
3. 74
4. 5020

Q: Which IC50 is listed for `COc1cc(C(=O)N(CCCc2ccccc2)CC(=O)NC(C)(C)C(=O)O)cc(OC)c1C` ?
Ans: 51
